Hey, just so you know, these numbers are from the supplement of paper PMC8728848.

glycan array binding signal (z-score) by entry:
Biological target: GlcA(b1-6)Gal
Test: glycan array binding signal (z-score within array); higher = stronger binding
Settings: glycan notation: IUPAC condensed, linker removed
The sample as a whole holds a higher share of the strongest signals than the screen did.
Readout Type: glycan array binding signal (z-score)

Binder | Recorded Measurement
CFEM-PPm (Pichia pastoris), F2QPV1 (protein) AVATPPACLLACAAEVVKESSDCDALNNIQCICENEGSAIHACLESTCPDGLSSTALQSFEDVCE | 2.41
SP16663B-bot-321-25-321 (Bacteroides ovatus) (protein) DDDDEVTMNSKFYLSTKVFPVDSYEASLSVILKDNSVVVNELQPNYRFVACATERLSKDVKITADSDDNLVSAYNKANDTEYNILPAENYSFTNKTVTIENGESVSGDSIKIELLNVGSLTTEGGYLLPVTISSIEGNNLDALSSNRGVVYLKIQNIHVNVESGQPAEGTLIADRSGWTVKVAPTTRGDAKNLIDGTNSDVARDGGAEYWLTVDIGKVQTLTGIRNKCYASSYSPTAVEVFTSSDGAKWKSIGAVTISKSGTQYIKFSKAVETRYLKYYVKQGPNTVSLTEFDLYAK | 0.013
MpAFP NterminalRI GFP (Marinomonas primoryensis) (protein) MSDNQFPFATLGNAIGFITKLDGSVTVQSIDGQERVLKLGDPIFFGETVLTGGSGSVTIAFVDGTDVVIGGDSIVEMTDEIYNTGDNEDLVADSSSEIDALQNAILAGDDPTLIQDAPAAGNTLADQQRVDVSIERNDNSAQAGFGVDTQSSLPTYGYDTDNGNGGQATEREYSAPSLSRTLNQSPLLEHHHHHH | -0.407
